- SUBJECT_OF_TEST: acetylcholine receptor
- ASSAY_PROCEDURE: SPR, AchR immobilised on chip, peptide 10 uM
QUANTITY: Binding affinity (RU)

{"columns": ["BINDER", "UNIT_OF_MEASUREMENT", "RESULT_VALUE"],
 "data": [
  ["KPTHK [5mer-1126]", "RU", 26]
]}

1. RRRICK [6mer-1-232]
2. KAKNR [5mer-1144]
3. KKAGR [5mer-827]
Arrange these binders by their Binding affinity (RU), starting with the largest number. // list labels; follow requested order
1, 2, 3
(1: 146 RU, 2: 33 RU, 3: 18 RU)
